B1: library; a variant is named by its letters at N, in order (parent)
chain: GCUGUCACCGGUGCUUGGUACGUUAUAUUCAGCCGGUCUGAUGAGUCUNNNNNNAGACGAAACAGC

- Variants of: B1
- Procedure Summary: normalized RNA/DNA level with ligand (relative to sTRSVctl = 100) (log10 (% of sTRSVctl)); HEK293T overexpressing SLC46A1; ligand concentration (+) RNA-Seq: 6 mM; higher = less ribozyme self-cleavage, higher mRNA level
- Experimental Context: with (6R,S)-folinic acid; ligand present: yes
Measured Endpoint: normalized RNA/DNA level with ligand (log10)
Could you respond with only the numeric value?

| Alteration | Reported Result |
| --- | --- |
| AAGUUG | 2.02 |

According to the records, this variant `UCAGAG` displays normalized RNA/DNA level with ligand (log10) of 1.98

# variant `UACCGG` ; its normalized RNA/DNA level with ligand (log10) = 2

Measured normalized RNA/DNA level with ligand (log10) of `AAGAGC` : 1.99
